B1: Neutrophil cytosol factor 2, residues 456 to 514; numbered along this chain, P19878 (parent)
chain: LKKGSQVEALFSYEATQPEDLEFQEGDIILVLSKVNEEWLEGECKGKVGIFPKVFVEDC

Variants of: B1
protocol: abundance fitness (aPCA) (normalised: wild type 0, dead -1); higher = more abundant; growth selection in yeast, the domain comes from the species named
measurement setup: Homo sapiens
For each of the variants below, state its abundance fitness.
Could you keep your reply to the number by itself?

Sure, the documented abundance fitness for Q24N is -0.002

Sure, the documented abundance fitness for E14V is 0.027

Sure, the documented abundance fitness for P52E is -0.642

Sure, the documented abundance fitness for L30G is -0.2

Sure, the documented abundance fitness for Q17P is -1.03

Sure, the documented abundance fitness for F55A is 0.034

Sure, the documented abundance fitness for P52I is -0.766

Sure, the documented abundance fitness for L21R is -0.67

Sure, the documented abundance fitness for F51E is 0.113

Sure, the documented abundance fitness for E25N is -0.015

Sure, the documented abundance fitness for E19I is -0.305

Sure, the documented abundance fitness for K34E is 0.466

Sure, the documented abundance fitness for N36H is -0.276

Sure, the documented abundance fitness for C44M is 0.102

Sure, the documented abundance fitness for C59T is 0.289

Sure, the documented abundance fitness for D27K is -0.365

Sure, the documented abundance fitness for E37P is -0.903

Sure, the documented abundance fitness for F55I is -0.599

Sure, the documented abundance fitness for E22T is -0.24

Sure, the documented abundance fitness for Y13W is -0.484

Sure, the documented abundance fitness for K3P is 0.347

Sure, the documented abundance fitness for G26E is -0.473

Sure, the documented abundance fitness for G4W is -0.84

Sure, the documented abundance fitness for I28Q is 0.146

Sure, the documented abundance fitness for L40Q is -0.58

Sure, the documented abundance fitness for V54R is 0.625

Sure, the documented abundance fitness for P18G is -0.613

Sure, the documented abundance fitness for W39M is 0.036

Sure, the documented abundance fitness for K47C is -0.658

Sure, the documented abundance fitness for Y13P is -0.21

Sure, the documented abundance fitness for E19S is -0.229

Sure, the documented abundance fitness for S12D is -0.139

Sure, the documented abundance fitness for I28A is -0.179

Sure, the documented abundance fitness for K34Q is -0.215

Sure, the documented abundance fitness for V7I is -0.805

Sure, the documented abundance fitness for G26W is -0.809

Sure, the documented abundance fitness for V54C is 0.378

Sure, the documented abundance fitness for Q24Y is -0.44

Sure, the documented abundance fitness for D58R is 0.155

Sure, the documented abundance fitness for I50Y is -0.208

Sure, the documented abundance fitness for L21D is -0.323

Sure, the documented abundance fitness for P52A is -0.305

Sure, the documented abundance fitness for D27Y is -0.613

Sure, the documented abundance fitness for F51V is -0.342

Sure, the documented abundance fitness for G4Y is -0.89

Sure, the documented abundance fitness for G4D is -0.031

Sure, the documented abundance fitness for K34W is -0.437

Sure, the documented abundance fitness for L1I is 0.114

Sure, the documented abundance fitness for V54Y is -0.03

Sure, the documented abundance fitness for S12T is -0.119

Sure, the documented abundance fitness for G46H is -0.84

Sure, the documented abundance fitness for V7F is -0.414

Sure, the documented abundance fitness for E25M is -0.264

Sure, the documented abundance fitness for V35C is -0.475

Sure, the documented abundance fitness for E57M is -0.464

Sure, the documented abundance fitness for T16L is -0.076

Sure, the documented abundance fitness for L1W is 0.161

Sure, the documented abundance fitness for I28N is 0.043

Sure, the documented abundance fitness for V54T is 0.18

Sure, the documented abundance fitness for E8G is -0.093

Sure, the documented abundance fitness for E8I is 0.744

Sure, the documented abundance fitness for P52G is -0.215

Sure, the documented abundance fitness for G46P is -0.747

Sure, the documented abundance fitness for G42T is -0.876

Sure, the documented abundance fitness for F23A is -0.333

Sure, the documented abundance fitness for Q17S is 0.615

Sure, the documented abundance fitness for I29A is -0.53

Sure, the documented abundance fitness for A15W is -0.48

Sure, the documented abundance fitness for C44I is -0.705

Sure, the documented abundance fitness for D27A is -0.142

Sure, the documented abundance fitness for T16G is -0.192

Sure, the documented abundance fitness for I29D is -0.41

Sure, the documented abundance fitness for G42C is -0.782

Sure, the documented abundance fitness for V48L is -0.706

Sure, the documented abundance fitness for L40R is -0.217

Sure, the documented abundance fitness for E22N is -0.654

Sure, the documented abundance fitness for K47N is -0.271

Sure, the documented abundance fitness for D58V is -0.138

Sure, the documented abundance fitness for K2M is -0.593

Sure, the documented abundance fitness for K2E is -0.415

Sure, the documented abundance fitness for Y13K is -0.307
